Biological target: HIV-1 pseudovirus Ce1176_A3 (HIV-1)
Assay: cell-based or functional assay
IC80 (neutralization in TZM.bl cells) reference
Your answer should be a plain number; it is taken to be in mg/L.

Illustrative cases are given below, each with its answer.
- BINDER: "MS-72 (antibody, V domains shown) VH: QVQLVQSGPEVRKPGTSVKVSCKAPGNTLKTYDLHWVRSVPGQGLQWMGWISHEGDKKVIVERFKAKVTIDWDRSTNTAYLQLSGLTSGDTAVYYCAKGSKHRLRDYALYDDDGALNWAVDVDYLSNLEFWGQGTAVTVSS VL: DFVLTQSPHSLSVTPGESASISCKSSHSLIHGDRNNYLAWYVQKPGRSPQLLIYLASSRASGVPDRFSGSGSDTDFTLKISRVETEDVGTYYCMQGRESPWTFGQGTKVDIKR"
  IC80 (neutralization in TZM.bl cells) (mg/L): 1.3
- BINDER: "MS-82 (antibody, V domains shown) VH: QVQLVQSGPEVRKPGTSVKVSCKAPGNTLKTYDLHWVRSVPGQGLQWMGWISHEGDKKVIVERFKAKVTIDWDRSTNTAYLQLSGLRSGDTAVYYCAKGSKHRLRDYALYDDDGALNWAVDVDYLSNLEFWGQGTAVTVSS VL: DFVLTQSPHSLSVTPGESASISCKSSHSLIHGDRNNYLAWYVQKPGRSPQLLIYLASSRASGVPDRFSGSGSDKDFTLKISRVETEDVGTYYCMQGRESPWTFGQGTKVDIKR"
  IC80 (neutralization in TZM.bl cells) (mg/L): 0.635

Then there is this binder:
IC80 (neutralization in TZM.bl cells) reported for this binder MS-76 (antibody, V domains shown) VH: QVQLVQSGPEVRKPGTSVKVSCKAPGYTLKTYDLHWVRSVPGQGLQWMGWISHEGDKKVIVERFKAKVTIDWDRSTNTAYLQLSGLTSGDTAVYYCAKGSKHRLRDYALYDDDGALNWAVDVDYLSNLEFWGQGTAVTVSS VL: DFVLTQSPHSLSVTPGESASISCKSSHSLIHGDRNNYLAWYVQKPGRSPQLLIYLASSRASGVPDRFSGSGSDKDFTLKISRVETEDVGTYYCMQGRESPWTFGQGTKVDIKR : 1.63
